Target: NMDA receptor glycine sites
Experiment: electrophysiological assay, cloned rat NMDA receptors expressed in Xenopus oocytes
Conditions: Table II; from electrophysiology using Xenopus oocytes
Description: The binding affinities of quinoxaline-2,3-diones at NMDA receptor glycine sites also were estimated by electrophysiological assays with either cloned rat NMDA receptors expressed in Xenopus oocytes, or non-NMDA receptors expressed in oocytes by whole rat brain poly(A)^+ RNA. […] For NMDA receptors Ki values were approximated by averaging values at three subtype combinations (NR1A/NR2A, NR1A/NR2B, and NR1A/NR2C).
Assign labels as follows, please: Fulfilled for Ki below 300 nM; Not fulfilled for Ki equal to or exceeding 300 nM.

Answer whether the molecule CCOc1c(F)cc2[nH]c(=O)c(=O)[nH]c2c1[N+](=O)[O-] [NO2 OEt F H] has Ki strictly less than 300 nM
Not fulfilled

Answer whether the molecule Cc1cc(C)c2[nH]c(=O)c(=O)[nH]c2c1 [Me H Me H] has Ki strictly less than 300 nM
Not fulfilled

Answer whether the molecule [N-]=[N+]=Nc1c(Cl)c(Cl)cc2[nH]c(=O)c(=O)[nH]c12 [N3 Cl Cl H] has Ki strictly less than 300 nM
Fulfilled

Answer whether the molecule CCc1cc(Br)cc2[nH]c(=O)c(=O)[nH]c12 [Et H Br H] has Ki strictly less than 300 nM
Not fulfilled

Answer whether the molecule COc1c(F)cc2[nH]c(=O)c(=O)[nH]c2c1[N+](=O)[O-] [NO2 OMe F H] has Ki strictly less than 300 nM
Not fulfilled

Answer whether the molecule Cc1cc2[nH]c(=O)c(=O)[nH]c2c([N+](=O)[O-])c1Cl [NO2 Cl Me H] has Ki strictly less than 300 nM
Fulfilled

Answer whether the molecule Cc1cc2[nH]c(=O)c(=O)[nH]c2cc1C [H Me Me H] has Ki strictly less than 300 nM
Not fulfilled

Answer whether the molecule O=c1[nH]c2cc3c(c([N+](=O)[O-])c2[nH]c1=O)CCC3 [NO2 CH2 CH2 CH2 H] has Ki strictly less than 300 nM
Not fulfilled

Answer whether the molecule CCSc1c(Cl)cc2[nH]c(=O)c(=O)[nH]c2c1[N+](=O)[O-] [NO2 SEt Cl H] has Ki strictly less than 300 nM
Not fulfilled

* * *

Consider the following molecules; for each one, report its ED50.
tested on: mice; experiment: anticonvulsant activity in maximum electroshock seizure (MES) experiments in mice; assay type: in vivo, male Swiss/Webster mice; details: Mus musculus, iv; Table III; i.v. injection; read-out: ED50 (MES)

Param item = `O=c1[nH]c2cc(F)c(F)c([N+](=O)[O-])c2[nH]c1=O` ; retrieve measured ED50.
0.7 to 0.8 mg/kg

Param item = `O=c1[nH]c2cc(F)c(F)c(F)c2[nH]c1=O` ; retrieve measured ED50.
4 to 5 mg/kg

Param item = `O=c1[nH]c2c(F)c(Cl)c(F)c([N+](=O)[O-])c2[nH]c1=O` ; retrieve measured ED50.
2 to 3 mg/kg

Param item = `O=c1[nH]c2cc(F)c(Cl)c([N+](=O)[O-])c2[nH]c1=O` ; retrieve measured ED50.
4 to 5 mg/kg

Sourced from patent US6251903A
